# System: 556581-035-R-J1 tumor spheroid viability, % test/control
# protocolDescription: Anticancer human tumor 556581-035-R-J1 patient-derived ovarian carcinoma cell line growth inhibition
# measurementConditions: second compound 0.0003 µM; first compound 0.1 µM; stronger effect = lower value; spheroids with HUVEC and MSC
Exercise: state measured viability, T/C for each of the compounds provided.
Quick reminder: number only, in %, skip the unit.

Documented viability, T/C of CC1COCCN1c1cc(-c2ccnn2C)c2ccnc(-c3ccn[nH]3)c2n1 (stereo unspecified) + COc1cc2c(cc1O)CCNC21CSC2c3c(OC(C)=O)c(C)c4c(c3C(COC1=O)N1C(O)C3Cc5cc(C)c(OC)c(O)c5C(C21)N3C)OCO4 : 45.7

Documented viability, T/C of COc1ccc([C@@H](O)c2cc(-c3ncnc4cc(N5CCOCC5)ccc34)c(F)cc2Cl)nn1 + COc1cc2c(cc1O)CCNC21CSC2c3c(OC(C)=O)c(C)c4c(c3C(COC1=O)N1C(O)C3Cc5cc(C)c(OC)c(O)c5C(C21)N3C)OCO4 : 104

Documented viability, T/C of COc1cc(C)[nH]c(=O)c1CN1CCc2c(Cl)cc(C(OC)C3COC3)c(Cl)c2C1=O (stereo unspecified) + COc1cc2c(cc1O)CCNC21CSC2c3c(OC(C)=O)c(C)c4c(c3C(COC1=O)N1C(O)C3Cc5cc(C)c(OC)c(O)c5C(C21)N3C)OCO4 : 95

Documented viability, T/C of Cc1cc(C)c(CNC(=O)c2cc(-c3ccc(CN4CCOCC4)cc3)cc3c2cnn3C2CCCC2)c(=O)[nH]1 + COc1cc2c(cc1O)CCNC21CSC2c3c(OC(C)=O)c(C)c4c(c3C(COC1=O)N1C(O)C3Cc5cc(C)c(OC)c(O)c5C(C21)N3C)OCO4 : 100

Documented viability, T/C of CC(C)n1c(=O)n(C)c2cnc3cc(F)c(-c4ccc(OCCCN5CCCCC5)nc4)cc3c21 + COc1cc2c(cc1O)CCNC21CSC2c3c(OC(C)=O)c(C)c4c(c3C(COC1=O)N1C(O)C3Cc5cc(C)c(OC)c(O)c5C(C21)N3C)OCO4 : 96.8

Documented viability, T/C of [2H]c1nc(C)nc([2H])c1-c1cc(NC[C@@H](C)c2cccc3c(C(=O)NC)ccnc23)ncn1 + COc1cc2c(cc1O)CCNC21CSC2c3c(OC(C)=O)c(C)c4c(c3C(COC1=O)N1C(O)C3Cc5cc(C)c(OC)c(O)c5C(C21)N3C)OCO4 : 110

----------
# System: 556581-035-R-J1 tumor spheroid viability, % test/control
# protocolDescription: Anticancer human tumor 556581-035-R-J1 cell line growth inhibition;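 further: spheroids exposed to compounds for 7 days before viability read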
# measurementConditions: second compound 0.3 µM; first compound 0.0949 µM; stronger effect = lower value; spheroids with HUVEC and MSC
measuredQuantity: viability, T/C (%)
Quick reminder: number only, in %, skip the unit.

Documented viability, T/C of Cn1ncnc1[C@H]1c2n[nH]c(=O)c3cc(F)cc(c23)N[C@@H]1c1ccc(F)cc1 + CC[C@@]1(O)C(=O)OCc2c1cc1n(c2=O)Cc2cc3c(CN(C)C)c(O)ccc3nc2-1 : 12.7

Documented viability, T/C of CNCc1ccc(-c2cc(-c3nc(-c4ccc(S(=O)(=O)C(C)C)cc4)cnc3N)on2)cc1 + CC[C@@]1(O)C(=O)OCc2c1cc1n(c2=O)Cc2cc3c(CN(C)C)c(O)ccc3nc2-1 : 14.3

Documented viability, T/C of O=C(c1cc(Cc2n[nH]c(=O)c3ccccc23)ccc1F)N1CCN(C(=O)C2CC2)CC1 + CC[C@@]1(O)C(=O)OCc2c1cc1n(c2=O)Cc2cc3c(CN(C)C)c(O)ccc3nc2-1 : 16.4

Documented viability, T/C of Cc1sc2c(c1C)C(c1ccc(Cl)cc1)=NC(CC(=O)Nc1ccc(O)cc1)c1nnc(C)n1-2 (centres undefined) + CC[C@@]1(O)C(=O)OCc2c1cc1n(c2=O)Cc2cc3c(CN(C)C)c(O)ccc3nc2-1 : 12.9

----------
# Tested on: 556581-035-R-J1 tumor spheroid viability, % test/control
# protocolDescription: Anticancer human tumor 556581-035-R-J1 cell line growth inhibition; active = viability on the fitted dose curve at most 10% of control; inactive = the rest;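 further: spheroids exposed to compounds for 7 days before viability read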
# measurementConditions: second compound 0.000949 µM; first compound 0.0316 µM; spheroids with HUVEC and MSC
Respond only with the outcome that fits, drawn from active, inactive

Qu. Just curious, what result did COc1ccc([C@@H](O)c2cc(-c3ncnc4cc(N5CCOCC5)ccc34)c(F)cc2Cl)nn1 + COc1cc2c(cc1O)CCNC21CSC2c3c(OC(C)=O)c(C)c4c(c3C(COC1=O)N1C(O)C3Cc5cc(C)c(OC)c(O)c5C(C21)N3C)OCO4 get here?
Ans. inactive

Qu. Just curious, what result did Cc1cc(C)c(CNC(=O)c2cc(-c3ccc(CN4CCOCC4)cc3)cc3c2cnn3C2CCCC2)c(=O)[nH]1 + COc1cc2c(cc1O)CCNC21CSC2c3c(OC(C)=O)c(C)c4c(c3C(COC1=O)N1C(O)C3Cc5cc(C)c(OC)c(O)c5C(C21)N3C)OCO4 get here?
Ans. inactive

Qu. Just curious, what result did CC(C)n1c(=O)n(C)c2cnc3cc(F)c(-c4ccc(OCCCN5CCCCC5)nc4)cc3c21 + COc1cc2c(cc1O)CCNC21CSC2c3c(OC(C)=O)c(C)c4c(c3C(COC1=O)N1C(O)C3Cc5cc(C)c(OC)c(O)c5C(C21)N3C)OCO4 get here?
Ans. inactive

Qu. Just curious, what result did COc1cc(C)[nH]c(=O)c1CN1CCc2c(Cl)cc(C(OC)C3COC3)c(Cl)c2C1=O (stereo unspecified) + COc1cc2c(cc1O)CCNC21CSC2c3c(OC(C)=O)c(C)c4c(c3C(COC1=O)N1C(O)C3Cc5cc(C)c(OC)c(O)c5C(C21)N3C)OCO4 get here?
Ans. inactive

Qu. Just curious, what result did CC1COCCN1c1cc(-c2ccnn2C)c2ccnc(-c3ccn[nH]3)c2n1 (stereo unspecified) + COc1cc2c(cc1O)CCNC21CSC2c3c(OC(C)=O)c(C)c4c(c3C(COC1=O)N1C(O)C3Cc5cc(C)c(OC)c(O)c5C(C21)N3C)OCO4 get here?
Ans. active

Qu. Just curious, what result did [2H]c1nc(C)nc([2H])c1-c1cc(NC[C@@H](C)c2cccc3c(C(=O)NC)ccnc23)ncn1 + COc1cc2c(cc1O)CCNC21CSC2c3c(OC(C)=O)c(C)c4c(c3C(COC1=O)N1C(O)C3Cc5cc(C)c(OC)c(O)c5C(C21)N3C)OCO4 get here?
Ans. inactive

----------
# Test system: 556581-035-R-J1 tumor spheroid viability, % test/control
# protocolDescription: Anticancer human tumor 556581-035-R-J1 cell line growth inhibition;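 further: spheroids exposed to compounds for 7 days before viability read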
# measurementConditions: second compound 30 pM; first compound 0.3 µM; stronger effect = lower value; spheroids with HUVEC and MSC
measuredQuantity: viability, T/C (%)
Quick reminder: number only, in %, skip the unit.

Documented viability, T/C of CNCc1ccc(-c2cc(-c3nc(-c4ccc(S(=O)(=O)C(C)C)cc4)cnc3N)on2)cc1 + COc1cc2c(cc1O)CCNC21CSC2c3c(OC(C)=O)c(C)c4c(c3C(COC1=O)N1C(O)C3Cc5cc(C)c(OC)c(O)c5C(C21)N3C)OCO4 : 108

Documented viability, T/C of Cc1sc2c(c1C)C(c1ccc(Cl)cc1)=NC(CC(=O)Nc1ccc(O)cc1)c1nnc(C)n1-2 (centres undefined) + COc1cc2c(cc1O)CCNC21CSC2c3c(OC(C)=O)c(C)c4c(c3C(COC1=O)N1C(O)C3Cc5cc(C)c(OC)c(O)c5C(C21)N3C)OCO4 : 80.1

Documented viability, T/C of Cn1ncnc1[C@H]1c2n[nH]c(=O)c3cc(F)cc(c23)N[C@@H]1c1ccc(F)cc1 + COc1cc2c(cc1O)CCNC21CSC2c3c(OC(C)=O)c(C)c4c(c3C(COC1=O)N1C(O)C3Cc5cc(C)c(OC)c(O)c5C(C21)N3C)OCO4 : 86.7

Documented viability, T/C of O=C(c1cc(Cc2n[nH]c(=O)c3ccccc23)ccc1F)N1CCN(C(=O)C2CC2)CC1 + COc1cc2c(cc1O)CCNC21CSC2c3c(OC(C)=O)c(C)c4c(c3C(COC1=O)N1C(O)C3Cc5cc(C)c(OC)c(O)c5C(C21)N3C)OCO4 : 105

----------
# Test system: 556581-035-R-J1 tumor spheroid viability, % test/control
# protocolDescription: Anticancer human tumor 556581-035-R-J1 cell line growth inhibition; active = viability on the fitted dose curve at most 10% of control; inactive = the rest;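 further: spheroids exposed to compounds for 7 days before viability read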
# measurementConditions: second compound 0.003 µM; first compound 0.316 µM; spheroids with HUVEC and MSC
Respond only with the outcome that fits, drawn from active, inactive

Qu. Just curious, what result did CC(C)n1c(=O)n(C)c2cnc3cc(F)c(-c4ccc(OCCCN5CCCCC5)nc4)cc3c21 + COc1cc2c(cc1O)CCNC21CSC2c3c(OC(C)=O)c(C)c4c(c3C(COC1=O)N1C(O)C3Cc5cc(C)c(OC)c(O)c5C(C21)N3C)OCO4 get here?
Ans. active

Qu. Just curious, what result did COc1ccc([C@@H](O)c2cc(-c3ncnc4cc(N5CCOCC5)ccc34)c(F)cc2Cl)nn1 + COc1cc2c(cc1O)CCNC21CSC2c3c(OC(C)=O)c(C)c4c(c3C(COC1=O)N1C(O)C3Cc5cc(C)c(OC)c(O)c5C(C21)N3C)OCO4 get here?
Ans. active

Qu. Just curious, what result did CC1COCCN1c1cc(-c2ccnn2C)c2ccnc(-c3ccn[nH]3)c2n1 (configuration not stated) + COc1cc2c(cc1O)CCNC21CSC2c3c(OC(C)=O)c(C)c4c(c3C(COC1=O)N1C(O)C3Cc5cc(C)c(OC)c(O)c5C(C21)N3C)OCO4 get here?
Ans. active

Qu. Just curious, what result did Cc1cc(C)c(CNC(=O)c2cc(-c3ccc(CN4CCOCC4)cc3)cc3c2cnn3C2CCCC2)c(=O)[nH]1 + CC[C@@]1(O)C(=O)OCc2c1cc1n(c2=O)Cc2cc3c(CN(C)C)c(O)ccc3nc2-1 get here?
Ans. inactive

Qu. Just curious, what result did COc1cc(C)[nH]c(=O)c1CN1CCc2c(Cl)cc(C(OC)C3COC3)c(Cl)c2C1=O (configuration not stated) + CC[C@@]1(O)C(=O)OCc2c1cc1n(c2=O)Cc2cc3c(CN(C)C)c(O)ccc3nc2-1 get here?
Ans. inactive

Qu. Just curious, what result did COc1cc(C)[nH]c(=O)c1CN1CCc2c(Cl)cc(C(OC)C3COC3)c(Cl)c2C1=O (configuration not stated) + COc1cc2c(cc1O)CCNC21CSC2c3c(OC(C)=O)c(C)c4c(c3C(COC1=O)N1C(O)C3Cc5cc(C)c(OC)c(O)c5C(C21)N3C)OCO4 get here?
Ans. active

Qu. Just curious, what result did CC(C)n1c(=O)n(C)c2cnc3cc(F)c(-c4ccc(OCCCN5CCCCC5)nc4)cc3c21 + CC[C@@]1(O)C(=O)OCc2c1cc1n(c2=O)Cc2cc3c(CN(C)C)c(O)ccc3nc2-1 get here?
Ans. inactive

Qu. Just curious, what result did CC1COCCN1c1cc(-c2ccnn2C)c2ccnc(-c3ccn[nH]3)c2n1 (configuration not stated) + CC[C@@]1(O)C(=O)OCc2c1cc1n(c2=O)Cc2cc3c(CN(C)C)c(O)ccc3nc2-1 get here?
Ans. inactive

Qu. Just curious, what result did [2H]c1nc(C)nc([2H])c1-c1cc(NC[C@@H](C)c2cccc3c(C(=O)NC)ccnc23)ncn1 + COc1cc2c(cc1O)CCNC21CSC2c3c(OC(C)=O)c(C)c4c(c3C(COC1=O)N1C(O)C3Cc5cc(C)c(OC)c(O)c5C(C21)N3C)OCO4 get here?
Ans. active

Qu. Just curious, what result did COc1ccc([C@@H](O)c2cc(-c3ncnc4cc(N5CCOCC5)ccc34)c(F)cc2Cl)nn1 + CC[C@@]1(O)C(=O)OCc2c1cc1n(c2=O)Cc2cc3c(CN(C)C)c(O)ccc3nc2-1 get here?
Ans. inactive

Qu. Just curious, what result did Cc1cc(C)c(CNC(=O)c2cc(-c3ccc(CN4CCOCC4)cc3)cc3c2cnn3C2CCCC2)c(=O)[nH]1 + COc1cc2c(cc1O)CCNC21CSC2c3c(OC(C)=O)c(C)c4c(c3C(COC1=O)N1C(O)C3Cc5cc(C)c(OC)c(O)c5C(C21)N3C)OCO4 get here?
Ans. active

Qu. Just curious, what result did [2H]c1nc(C)nc([2H])c1-c1cc(NC[C@@H](C)c2cccc3c(C(=O)NC)ccnc23)ncn1 + CC[C@@]1(O)C(=O)OCc2c1cc1n(c2=O)Cc2cc3c(CN(C)C)c(O)ccc3nc2-1 get here?
Ans. inactive
